- system tested: UniProt:P35869
- procedure summary: DRE-Luciferase reporter high-throughput screen (AHR antagonist, VAF347-activated)
property: IC50

Check out these entries, answers already filled in.
> print(dat)
                                   compound     result.value
1     O=C(Nc1ccc(Cl)cn1)C1Cc2ccccc2C1 [26B]   500 to 1000 nM
2  CCC(=O)Nc1ccc(Cl)c(NC(=O)c2ccc(OC(C)C)cc2)c1   500 to 1000 nM
3  Cc1noc(C)c1C(=O)Nc1ccc(-c2nc3ccccc3o2)cc1    200 to 500 nM
4        COc1ccnc(Sc2ccc(Cl)cc2)c1C#N [94A]  1000 to 2000 nM
5  O=[N+]([O-])c1ccc(/C=N/Nc2nccc(-c3cccnc3)n2)cc1    200 to 500 nM
6  OCCCc1nc2n(n1)C(c1cccc(Br)c1)C=C(c1ccc(Cl)cc1)N2 (stereo not drawn)    200 to 500 nM
7  CCc1ccc(C(=O)Nc2scc(-c3ccc(Cl)cc3)c2C(N)=O)s1    200 to 500 nM
8  Cc1cc(NC(=O)c2nnn(-c3ccccc3)c2C)no1 [19B]        > 2000 nM

Turning to the following compound.
stdin: Query: IC50; subject: O=C(Nc1ccc2c(c1)ncn2-c1ccccc1)c1ccc(Cl)cc1 [39A]
stdout: 1000 to 2000 nM

* * *

- system tested: aryl hydrocarbon receptor (AHR) (Homo sapiens)
- procedure summary: DRE-Luciferase reporter high-throughput screen (AHR antagonist, VAF347-activated)
Reported IC50 is given for each of the following compounds.

Solved cases (3 shown):
> print(dat)
                                compound  result.value
1  COc1ccc(C(=O)c2cnc3ncccn23)cc1 [121A]        > 2 µM
2    Fc1ccc(-c2cc(N3CCCCC3)on2)cc1 [81B]        > 2 µM
3  COc1ccc(-c2noc(-c3cscn3)n2)cn1 [137A]        > 2 µM

stdin: Could you tell me which IC50 is on file for CSc1nc2cc(-c3ccc(Cl)cc3)nn2c(N)c1C#N [69B] ?
stdout: < 0.2 µM

* * *

- system tested: aryl hydrocarbon receptor (AHR) (Homo sapiens, UniProt P35869)
- Sequence (P35869 11-848): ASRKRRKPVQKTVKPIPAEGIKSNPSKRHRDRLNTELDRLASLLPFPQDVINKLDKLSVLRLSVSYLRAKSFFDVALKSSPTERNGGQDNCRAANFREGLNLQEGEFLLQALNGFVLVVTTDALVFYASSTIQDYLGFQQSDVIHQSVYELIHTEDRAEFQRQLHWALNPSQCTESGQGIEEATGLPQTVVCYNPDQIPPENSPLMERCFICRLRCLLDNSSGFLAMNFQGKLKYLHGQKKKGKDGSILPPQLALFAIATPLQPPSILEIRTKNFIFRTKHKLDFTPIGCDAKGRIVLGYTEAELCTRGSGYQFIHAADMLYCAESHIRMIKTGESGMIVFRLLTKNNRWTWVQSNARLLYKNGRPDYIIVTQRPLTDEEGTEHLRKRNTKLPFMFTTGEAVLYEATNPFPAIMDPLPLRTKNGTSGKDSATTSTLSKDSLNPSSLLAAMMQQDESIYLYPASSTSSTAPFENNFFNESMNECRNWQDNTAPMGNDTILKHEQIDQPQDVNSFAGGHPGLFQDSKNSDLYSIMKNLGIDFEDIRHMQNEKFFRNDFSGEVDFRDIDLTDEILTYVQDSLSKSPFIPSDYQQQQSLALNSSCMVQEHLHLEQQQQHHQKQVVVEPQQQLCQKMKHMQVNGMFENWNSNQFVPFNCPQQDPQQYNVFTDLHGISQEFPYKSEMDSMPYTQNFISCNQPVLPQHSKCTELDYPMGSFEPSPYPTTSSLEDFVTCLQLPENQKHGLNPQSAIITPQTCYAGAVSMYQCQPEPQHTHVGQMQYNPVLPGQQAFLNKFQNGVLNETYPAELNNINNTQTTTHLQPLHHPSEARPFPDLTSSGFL
- procedure summary: DRE-Luciferase reporter high-throughput screen (AHR antagonist, VAF347-activated)
property: IC50

> print(dat)
                                   molecule                             system.tested     result.value
1  CCc1c(C(=O)Nc2c(C)nn(-c3ccccc3)c2C)cnn1-c1ccc([N+](=O)[O-])cc1 [30A]  aryl hydrocarbon receptor (AHR) (Homo sapiens, UniProt P35869)  1000 to 2000 nM
2  CCc1cccc2c(C(=O)CSc3nnnn3C)c[nH]c12 [63B]  aryl hydrocarbon receptor (AHR) (Homo sapiens, UniProt P35869)  1000 to 2000 nM
3  Cc1c(Cl)cccc1NC(=O)c1occc1COc1ccccc1 [19A]  aryl hydrocarbon receptor (AHR) (Homo sapiens, UniProt P35869)  1000 to 2000 nM
4  O=C(NC1CC1)c1cnc(-c2noc3ccccc23)s1 [61A]  aryl hydrocarbon receptor (AHR) (Homo sapiens, UniProt P35869)  1000 to 2000 nM

stdin: Could you tell me which IC50 is on file for CN1CC(c2ccccc2)=Cc2c1ccc1nonc21 [188A] ?
stdout: 1000 to 2000 nM

stdin: Returns the measured IC50 for the input molecule. Input: COc1cccc(-c2cc(C(F)(F)F)nc(-n3cc(Cl)cn3)n2)c1 [86A]
stdout: 1000 to 2000 nM

stdin: Request the reported IC50 associated with `Clc1ccc(COc2ccc(-c3ccnc4ccnn34)cc2)cc1`
stdout: 500 to 1000 nM

stdin: Quick one: IC50 for `COc1cc(C(F)(F)F)ccc1C(=O)Nc1cccc(N2CCOCC2)c1` ?
stdout: 200 to 500 nM

stdin: So what's the measured IC50 for this one? `Cc1cccc(C(=O)Nc2ccc(-c3nc4ncccc4o3)cc2)c1`
stdout: 500 to 1000 nM

stdin: For the molecule `Cc1cn2nc(NCCOc3ccc(F)cc3)sc2n1` , what IC50 is on record?
stdout: 200 to 500 nM
